TEST NAME: qHTS Assay for Lipid Storage Modulators in Drosophila S3 Cells
CONDITION PARAMETERS: BODIPY lipid droplet fluorescence, 18-24 h, cells fed with added oleic acid; series mostly up to 46.1 µM
About 2,100 (0.66%) of roughly 320,000 compounds were called active. Another 53% or so got no clear call; they are omitted. The call rests on the fitted dose curve; in most records, active means well fitted inhibition curve with a large enough effect in the signal ratio, with a control signal flat (not every such curve was filed as active); inconclusive means small, poorly fitted or top-dose-only effect, or effect the other way, or a change in a side signal; inactive means flat fitted curve, though single readings scatter; the % refers to the signal ratio. The list comes from a sample in which actives are over-represented; it also holds close analogues and randomly drawn compounds.
Outcome codes: active, inactive

>>> category("CS(=O)(=O)Oc1ccc(/C=C2\\C(=N)N3N=C(CC(=O)N4CCOCC4)SC3=NC2=O)cc1Cl")
"inactive"
>>> category("COc1ccccc1NC(=O)c1ccc(-n2ccnc2)c([N+](=O)[O-])c1")
"inactive"
>>> category("CC(=O)Nc1ccc(C(=O)Nc2nc(-c3ccccn3)cs2)cc1")
"inactive"
>>> category("O=C(O)c1ccc(-n2ccnc2)c([N+](=O)[O-])c1")
"inactive"
>>> category("COc1ccc(N2C(=O)CN(Cc3ccc(OC)c(OC)c3)C2=S)cc1")
"inactive"
>>> category("Cc1cc(C)nc(/N=C(\\N)N2CCCCC2)n1")
"inactive"
>>> category("CCOc1ccc(C(=O)OCC(=O)N2CCCC2)cc1OCC")
"inactive"
>>> category("O=C(COc1ccccc1)N1CCNC1=O")
"active"
>>> category("Cc1ccnc2nc(C(=O)Nc3nccs3)nn12")
"inactive"
>>> category("COc1ccc(-n2cc(CN(C)C(C)c3ccncn3)c(-c3cccc(F)c3)n2)cc1 (stereo unspecified)")
"inactive"
>>> category("O=C(Nc1nc(-c2ccccn2)cs1)c1ccco1")
"inactive"

----------
TEST NAME: qHTS Assay for Lipid Storage Modulators in Drosophila S3 Cells
CONDITION PARAMETERS: BODIPY lipid droplet fluorescence, 18-24 h, cells fed with added oleic acid; series mostly up to 46.1 µM
Among all 320,000 compounds or so, about 2,100 (0.66%) were called active. Not shown: some 53% with an inconclusive outcome. Calls come from the whole dose curve; as a rule, active = well fitted inhibition curve with a large enough effect in the signal ratio, with a control signal flat (not every such curve was filed as active); inconclusive = small, poorly fitted or top-dose-only effect, or effect the other way, or a change in a side signal; inactive = flat fitted curve, though single readings scatter; the % refers to the signal ratio. Many of the other results were omitted from the sample, so actives are more common in it than they were.
Labels: class 1 (active), class 0 (inactive)

>>> category("c1cncc(CNc2ncnc3sccc23)c1")
"class 0"
>>> category("CCNC(=S)NNC(=O)c1ccc(=O)n(Cc2ccccc2)c1")
"class 0"
>>> category("CC(CNC(=O)c1cc(Cl)ccc1[N+](=O)[O-])NC(=O)c1cc(Cl)ccc1[N+](=O)[O-] (configuration not stated)")
"class 0"
>>> category("COc1cc(NS(=O)(=O)c2ccc(NC(=S)NC(=O)c3ccco3)cc2)nc(OC)n1")
"class 0"
>>> category("COC(=O)CNC(=O)CNC(=O)Nc1ccccc1")
"class 0"
>>> category("CC(C)(C)NC(=O)/C=C/c1cccc(C(F)(F)F)c1")
"class 0"
>>> category("COc1ccc(-n2c(/C=C(\\C)O)nc(=O)c3c(C)cc(C)nc32)cc1")
"class 0"
>>> category("COc1cc(OC)cc(C(=O)NC(C)CNc2ccc(Cl)cc2[N+](=O)[O-])c1 (configuration not stated)")
"class 1"
>>> category("CCc1nc(C)cn1S(=O)(=O)c1ccc([N+](=O)[O-])cc1")
"class 0"
>>> category("COc1ccc(S(=O)(=O)NCC2CCCN(C(=O)C=C(C)C)C2)cc1 (configuration not stated)")
"class 0"
>>> category("O=C(Cn1cc[n+](CC(=O)c2ccc(Cl)cc2Cl)c1)c1ccc(Cl)cc1Cl")
"class 0"
>>> category("CC1=NN(C(N)=S)C(=O)C1N=Nc1ccccc1C (configuration not stated)")
"class 0"
>>> category("CCc1ncc(CN2CCCC(C(=O)Nc3cccc(-c4cccc(C)c4)c3)C2)cn1 (configuration not stated)")
"class 0"
>>> category("C=CCn1c(SCC(=O)NC(=O)c2cccc([N+](=O)[O-])c2)nnc1-c1ccccc1F")
"class 0"
>>> category("CC1=NN(C(N)=S)C(=O)C1N=Nc1ccccc1O (configuration not stated)")
"class 0"
>>> category("O=C(N[C@@H](CO)C(=O)NCc1ccccc1)c1ccc(C(F)(F)F)cc1")
"class 0"
>>> category("CC1CCN(CCNC(=S)Nc2ccc(Cl)cc2)CC1")
"class 0"

----------
TEST NAME: qHTS Assay for Lipid Storage Modulators in Drosophila S3 Cells;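 on cell number change: cells counted by Cell Tracker Red CMTPX staining in the red channel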
CONDITION PARAMETERS: BODIPY lipid droplet fluorescence, 18-24 h, cells fed with added oleic acid; measured here: cell count max response
Among all 320,000 compounds or so, about 2,100 (0.66%) were called active. Not shown: some 53% with an inconclusive outcome. What follows is part of a selection rich in actives, with near analogues and random picks from the rest.
Listed below: cell number change values for each entry.
VALUE KIND: cell number change (%)

>>> numeric_value("Cc1cccc(OCC(=O)N2CCN(C(=O)c3ccc([N+](=O)[O-])cc3)CC2)c1")
2.07
>>> numeric_value("COc1cccc(OC)c1C(=O)NC(C)c1ccccc1 (stereo not given)")
0.137
>>> numeric_value("CC(=O)Nc1ccc(S(=O)(=O)NNC(=O)CCC(=O)Nc2cc(C)ccc2C)cc1")
1.21
>>> numeric_value("Clc1ccc(NNc2ccnc3cc(Cl)ccc23)cc1")
9.5
>>> numeric_value("Cc1ccc(NC(=O)CSCC(=O)N2CCN(Cc3ccc4c(c3)OCO4)CC2)cc1")
21.6

----------
TEST NAME: qHTS Assay for Lipid Storage Modulators in Drosophila S3 Cells; further: potency means the concentration at half of the fitted maximal effect
CONDITION PARAMETERS: BODIPY lipid droplet fluorescence, 18-24 h, cells fed with added oleic acid; series mostly up to 46.1 µM
In all, about 320,000 compounds went through this assay and about 2,100 (0.66%) were called active. Roughly 53% stayed inconclusive and do not appear here. The sample as a whole holds a higher share of actives than the screen did.
VALUE KIND: Potency

>>> result("O=C(c1c[nH]c(C(=O)C(Cl)(Cl)Cl)c1)c1ccccc1F")
"inactive"
>>> result("O=C(c1c[nH]c(C(=O)C(Cl)(Cl)Cl)c1)c1ccccc1Cl")
"25.9 µM (active)"
>>> result("COc1ccc(Cl)cc1NC(=O)CN(C)CC(=O)Nc1ccccc1-c1ccccc1")
"inactive"

----------
TEST NAME: qHTS Assay for Lipid Storage Modulators in Drosophila S3 Cells
CONDITION PARAMETERS: BODIPY lipid droplet fluorescence, 18-24 h, cells fed with added oleic acid; series mostly up to 46.1 µM
Hit rate of the full screen: of about 320,000 compounds, about 2,100 (0.66%) were called active. Inconclusive results (about 53%) are left out. The call rests on the fitted dose curve; in most records, active means well fitted inhibition curve with a large enough effect in the signal ratio, with a control signal flat (not every such curve was filed as active); inconclusive means small, poorly fitted or top-dose-only effect, or effect the other way, or a change in a side signal; inactive means flat fitted curve, though single readings scatter; the % refers to the signal ratio. Many of the other results were omitted from the sample, so actives are more common in it than they were.
Labels: TRUE (active), FALSE (inactive)

>>> category("CCc1cc(=O)oc2c(C)c(OC(C)C(=O)N3CCC[C@@H]3C(=O)O)ccc12 (stereo partly drawn)")
"FALSE"
>>> category("CCOC(=O)C1CCN(Cc2nnc(-c3ccccc3C)o2)CC1")
"FALSE"
>>> category("O=c1c2cc(Br)ccc2[nH]c(=S)n1Cc1ccccc1")
"FALSE"
>>> category("O=C(Nc1ccc(COc2ccccc2)cc1)c1cccc([N+](=O)[O-])c1")
"FALSE"
>>> category("O=c1ccc(-c2ccc(S(=O)(=O)N3CCN(c4cccc(Cl)c4)CC3)o2)n[nH]1")
"FALSE"
>>> category("Cc1ccc(CC(CC(=O)NCCc2ccc3c(c2)OCO3)C(=O)O)cc1 (stereo not drawn)")
"FALSE"
>>> category("Cc1c(C)c2ccc(OC(C)C(=O)N3CC[C@@]4(O)CCCC[C@H]4C3)c(C)c2oc1=O (stereo partly drawn)")
"TRUE"
>>> category("Clc1ccc(OCc2nc(-c3ccncc3)no2)c(Cl)c1")
"FALSE"
>>> category("COc1cccc(C2/C(=C(/O)c3ccc4c(c3)OCO4)C(=O)C(=O)N2CCN2CCOCC2)c1 (stereo not drawn)")
"FALSE"
>>> category("O=C(C(c1ccccc1)c1ccccc1)N1CC[C@@]2(O)CCCC[C@H]2C1")
"FALSE"
>>> category("CN1CCN(C(=O)C(=O)c2cn(CC(=O)N3CCCC3)c3ccccc23)CC1")
"FALSE"
>>> category("CCc1cc(=O)oc2c(C)c(OCC(=O)N3CC[C@@]4(O)CCCC[C@H]4C3)ccc12")
"FALSE"
>>> category("Clc1ccc(OCCCc2nc(-c3cccnc3)no2)c(Cl)c1")
"TRUE"

----------
TEST NAME: qHTS Assay for Lipid Storage Modulators in Drosophila S3 Cells
CONDITION PARAMETERS: BODIPY lipid droplet fluorescence, 18-24 h, cells fed with added oleic acid; series mostly up to 46.1 µM
Screen size: about 320,000 compounds; about 2,100 (0.66%) were called active. Not shown: some 53% with an inconclusive outcome. Calls follow the shape of the dose curve; as a rule, active = well fitted inhibition curve with a large enough effect in the signal ratio, with a control signal flat (not every such curve was filed as active); inconclusive = small, poorly fitted or top-dose-only effect, or effect the other way, or a change in a side signal; inactive = flat fitted curve, though single readings scatter; the % refers to the signal ratio. The entries come from a sample that favours actives as a whole.
Classes used: 1 (active), -1 (inactive)

>>> category("Cn1c(N)c(C(=O)COC(=O)c2ccc(Cl)c(S(=O)(=O)N3CCCC3)c2)c(=O)n(C)c1=O")
-1
>>> category("Cc1ccc(Nc2cc(C)nc(-c3ccccc3)n2)cc1")
-1
>>> category("CCOc1ccccc1CN1CCNC(=O)C1CC(=O)NCCCn1cccn1 (stereo not given)")
-1
>>> category("O=C(CCC1CCCC1)Nc1ccccc1-c1ccccc1")
-1
>>> category("CC(C)(C)c1ccc(Cn2nnc3c(=O)[nH]c(C4CCN(C(=O)c5ccco5)CC4)nc32)cc1")
1
>>> category("O=C(NCC1COc2ccccc2O1)c1cccc(S(=O)(=O)N2CCOCC2)c1 (stereo not given)")
-1
>>> category("O=C(NCC1CCCCC1)c1cccc(S(=O)(=O)N2CCCC2)c1")
-1
>>> category("CCOC(=O)C1CCN(C(=O)C(CCSC)NC(=O)COc2ccccc2)CC1 (stereo not given)")
-1
>>> category("CN(CCc1ccccn1)Cc1ccc(Cl)c(Cl)c1")
-1
>>> category("N#CC1(NC(=O)COc2ccc(S(=O)(=O)N3CCCC3)cc2[N+](=O)[O-])CCCCC1")
-1
>>> category("O=C(CS(=O)(=O)c1ccccc1)Nc1nnc(-c2cccs2)o1")
-1
>>> category("COc1cnc(-c2ccccn2)nc1Oc1c(C)cccc1C")
-1
>>> category("CC1CN(S(=O)(=O)c2cccc(C(=O)Nc3ccccc3N3CCOCC3)c2)CC(C)O1 (stereo not given)")
-1
>>> category("COc1ccc(CC(=O)NNC(=O)COc2ccc(Br)cc2C)cc1OC")
-1
>>> category("O=C(N/N=C/c1ccc([N+](=O)[O-])cc1)c1ccc2nc[nH]c2c1")
-1
>>> category("CC(C)n1c(SCC(=O)N2CCN(C)CC2)nc2c1c(=O)n(C)c(=O)n2C")
-1
>>> category("CCOc1ncccc1C(=O)Nc1cccc(S(=O)(=O)N2CCCCC2)c1")
-1
>>> category("CCOC(=O)C1=C(C)NC(=O)NC1c1cccc(O)c1 (stereo not given)")
1
>>> category("CCN(CC)S(=O)(=O)c1ccc2oc(C(=O)NC3CC3)c(C)c2c1")
-1
>>> category("CCOC(=O)C1=C(CBr)NC(=O)NC1C (stereo not given)")
-1
>>> category("CCOC(=O)C1=C(C)NC(=O)NC1C (stereo not given)")
1
>>> category("CC1CN(S(=O)(=O)c2cccc(C(=O)Nc3ccccc3N3CCCCC3)c2)CC(C)O1 (stereo not given)")
1
>>> category("COc1ccccc1C(=O)C1CCCN(Cc2cccc3nccnc23)C1 (stereo not given)")
-1
>>> category("CCOc1ccc(N2CC(C(=O)NCc3nnnn3-c3ccc(C)c(C)c3)CC2=O)cc1 (stereo not given)")
-1
>>> category("C=CCOc1c(CNC2CCCC2)cc(Cl)cc1OC")
-1
>>> category("N#CC1(NC(=O)COc2ccccc2[N+](=O)[O-])CCCCC1")
-1
>>> category("N#CC1(NC(=O)COc2cc(F)ccc2[N+](=O)[O-])CCCCC1")
1
>>> category("O=C(c1cccc([N+](=O)[O-])c1)N1CCN(c2cccc(Cl)c2)CC1")
-1
>>> category("CC(C)n1c(SCC(=O)N2CCCCC2)nc2c1c(=O)n(C)c(=O)n2C")
1
>>> category("CC(C)N(Cc1nnc(-c2ccc(Cl)cc2)o1)C(=O)c1cc2ccccc2o1")
-1
>>> category("CC1=C(C(=O)OCC2CCCO2)C(c2cccc(O)c2)NC(=O)N1 (stereo not given)")
-1
>>> category("O=C(Nc1cccc(S(=O)(=O)N2CCCCC2)c1)c1ccccn1")
-1
>>> category("CN(CCc1ccccn1)Cc1ccc(Cl)cc1")
-1
>>> category("O=C(c1ccccc1Cl)N1CCC(c2nc3c(nnn3Cc3ccco3)c(=O)[nH]2)CC1")
-1
>>> category("CCOC(=O)C1=C(CN2CCSCC2)NC(=O)NC1c1cccc([N+](=O)[O-])c1 (stereo not given)")
-1
>>> category("CCOC(=O)C1=C(C)NC2=C(C(=O)c3ccccc32)C1c1cccc2ccccc12 (stereo not given)")
1
>>> category("O=C(NCc1ccccc1)/C(=C/c1ccc([N+](=O)[O-])cc1)NC(=O)c1ccco1")
-1
>>> category("CN1CCN(S(=O)(=O)c2cccc(C(=O)Nc3ccccc3N3CCCC3)c2)CC1")
-1
>>> category("CSc1ncccc1C(=O)Nc1cccc(S(=O)(=O)N2CCCCC2)c1")
1
>>> category("O=c1[nH]c(C2CCCN(S(=O)(=O)c3cccc(F)c3)C2)nc2c1nnn2Cc1ccccc1 (stereo not given)")
-1
